Data provenance: patent US20050154537A1

- Tested on: Platelets
- assay-details: Lookup table: marker validity (nadir) window, Platelets
- Assay type: in vivo
- test-parameters: upper limit of nadir range, days elapsed between current dose and marker
- Description: A lookup table has been constructed (see above example), in the form of a table, to represent the relationship of each trial Agent and its qualified Clinical Markers. […] The table also includes information regarding the nadir of applicability for each Agent—Marker combination. The range, in days and indicated as the Lower Limit and Upper limit, has been determined by calculating a percentage (20%) above and below the true nadir value when only a single value is known. […]
Use Fulfilled when the recorded Platelets UL is no lower than 20 days; use Not fulfilled when it is lower.

Example entries begin here.
molecule: CC(=O)O[C@H]1C(=O)[C@@]2(C)[C@H]([C@H](OC(=O)c3ccccc3)[C@]3(O)C[C@H](OC(=O)[C@H](O)[C@@H](NC(=O)c4ccccc4)c4ccccc4)C(C)=C1C3(C)C)[C@]1(OC(C)=O)CO[C@@H]1C[C@@H]2O
group-label: Not fulfilled
--
molecule: N.N.O=C([O-])C1(C(=O)[O-])CCC1.[Pt+2]
group-label: Fulfilled

Inquiry: Check the entry N.N.[Cl][Pt][Cl] [Cisplatin] : does Platelets UL equal or exceed 20 days?
Reply text: Fulfilled

Inquiry: Check the entry "Nc1ccn([C@@H]2O[C@H](CO)[C@@H](O)C2(F)F)c(=O)n1" : does Platelets UL equal or exceed 20 days?
Reply text: Not fulfilled

Inquiry: Check the entry "CC(=O)O[C@@]12CO[C@@H]1C[C@H](O)[C@@]1(C)C(=O)[C@H](O)C3=C(C)[C@@H](OC(=O)[C@H](O)[C@@H](NC(=O)OC(C)(C)C)c4ccccc4)C[C@@](O)([C@@H](OC(=O)c4ccccc4)[C@H]21)C3(C)C" : does Platelets UL equal or exceed 20 days?
Reply text: Not fulfilled
